settings: [M+Na]+; instrument: DT; single field, calibrated with Agilent tune mix (Agilent)
Measurement Type: collision cross section (N2) (Å²)
# number only, unit Å² dropped from output

Some compounds with known collision cross section (N2) results, for comparison:
Ask | Identify measured collision cross section (N2) corresponding to CCCCC/C=C\C/C=C\C/C=C\CCCCCCC(=O)O[C@H](COC(=O)CCCCCCC/C=C\CCCCCC)COP(=O)(O)O[C@H]1C(O)C(O)C(O)[C@@H](O)C1O (stereo partly specified)
Reply | 294.5

Ask | Identify measured collision cross section (N2) corresponding to CCCCC/C=C\C/C=C\CCCCCCCC(=O)O[C@H](COC(=O)CCCCCCCCCCCCCCC)COP(=O)(O)O
Reply | 266.5

Ask | Identify measured collision cross section (N2) corresponding to CCCCCCCCCCCCCCCCCC(=O)O[C@H](CO)COP(=O)(O)OCCN
Reply | 227.5

Ask | Identify measured collision cross section (N2) corresponding to CCCCCCCCCCCCCCCCCC(=O)O[C@H](CO)COP(=O)([O-])OCC[N+](C)(C)C
Reply | 240.8

Ask | Identify measured collision cross section (N2) corresponding to CCCCCCCCC/C=C\CCCCCCCC(=O)O[C@H](COC(=O)CCCCCCCCCCCC)COP(=O)(O)OCCN
Reply | 272

// moving on: another record for collision cross section (N2)
Ask | Identify measured collision cross section (N2) corresponding to CC/C=C\C/C=C\C/C=C\C/C=C\CCCCC(=O)OC[C@H](COP(=O)(O)OC[C@@H](O)CO)OC(=O)CCCCCCCCC/C=C\CCCCCCCC
Reply | 288.8
